- ASSAY NOTES: Clearance in Beagle dog at 1 mg/kg, iv or 5 mg/kg, po by HPLC/MS analysis
- Format: ADME, organism-based, Canis lupus familiaris
- MEASUREMENT CONTEXT: in vivo

STRUCTURE NOTATION: CC(C)[C@@H]1OC(=O)C2(/C=C/c3ccc4ccc(nc4c3)[C@@H](C)NC(=O)[C@@H]3CCCN(N3)C(=O)[C@H](C)NC1=O)COCOC2
clearance: 1.33 mL/min/kg

STRUCTURE NOTATION: CC(C)[C@@H]1OC(=O)C(C)(C)/C=C/c2ccc3ccc(nc3c2)[C@@H](C)NC(=O)[C@@H]2CCCN(N2)C(=O)[C@H](C)NC1=O
clearance: 6 mL/min/kg

Data credit: ChEMBL document CHEMBL4152348
